TARGET OR SYSTEM: CHOK1 cells engineered to overexpress human CCR2 (Homo sapiens, UniProt P41597)
Construct: expressed in transfected cells; host or cells: CHOK1 cells
METHOD SUMMARY: Antibody dependent cellular cytotoxicity (ADCC) reporter assay (Example 199)
Format: cell-based
EXPERIMENTAL PARAMETERS: with anti-cotinine antibody SEQ ID NO: 11/12; CHOK1-human CCR2 target cells, Jurkat FcγRIIIa NFAT-luciferase reporter cells; 12-18 hours; read-out: ADCC Reporter Assay pEC50 (converted)
A collection of compounds and their measured EC50
OUTCOME MEASURE: EC50

COMPOUND: CC(C)N(C)[C@@H]1CC[C@H](N2CC[C@H](Nc3ncnc4ccc(C(F)(F)F)cc34)C2=O)[C@H](NC(=O)c2cc(NCCOCCOCCOCCOCCNC(=O)[C@H]3CC(=O)N(C)[C@@H]3c3cccnc3)ncn2)C1 [Example 127]
OUTCOME MEASURE: EC50
REPORTED MEASUREMENT: 1 nM
--
COMPOUND: CC(C)N(C)[C@@H]1CC[C@H](N2CC[C@H](Nc3ncnc4ccc(C(F)(F)F)cc34)C2=O)[C@H](NC(=O)CCOCCNC(=O)[C@H]2CC[C@@H](NC(=O)CCOCCNC(=O)[C@H]3CC(=O)N(C)[C@@H]3c3cccnc3)CC2)C1 [Example 110]
OUTCOME MEASURE: EC50
REPORTED MEASUREMENT: 0.167 nM

====

TARGET OR SYSTEM: human alpha1 nicotinic acetylcholine (nACh) receptor (Homo sapiens, UniProt P02708+Q07001)
Sequence (P02708 21-457): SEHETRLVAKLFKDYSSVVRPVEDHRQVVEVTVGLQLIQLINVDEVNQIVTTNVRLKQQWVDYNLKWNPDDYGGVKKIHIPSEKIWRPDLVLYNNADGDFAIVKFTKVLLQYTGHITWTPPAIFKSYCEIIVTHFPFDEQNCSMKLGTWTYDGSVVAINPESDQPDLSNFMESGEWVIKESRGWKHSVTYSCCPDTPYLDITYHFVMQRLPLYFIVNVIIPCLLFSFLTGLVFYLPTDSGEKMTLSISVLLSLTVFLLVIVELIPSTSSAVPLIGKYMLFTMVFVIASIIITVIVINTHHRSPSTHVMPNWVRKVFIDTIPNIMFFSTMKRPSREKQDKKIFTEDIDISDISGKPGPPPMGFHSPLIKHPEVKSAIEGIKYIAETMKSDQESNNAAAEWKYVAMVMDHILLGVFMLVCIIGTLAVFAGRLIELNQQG
Sequence (P11230 24-501 partner): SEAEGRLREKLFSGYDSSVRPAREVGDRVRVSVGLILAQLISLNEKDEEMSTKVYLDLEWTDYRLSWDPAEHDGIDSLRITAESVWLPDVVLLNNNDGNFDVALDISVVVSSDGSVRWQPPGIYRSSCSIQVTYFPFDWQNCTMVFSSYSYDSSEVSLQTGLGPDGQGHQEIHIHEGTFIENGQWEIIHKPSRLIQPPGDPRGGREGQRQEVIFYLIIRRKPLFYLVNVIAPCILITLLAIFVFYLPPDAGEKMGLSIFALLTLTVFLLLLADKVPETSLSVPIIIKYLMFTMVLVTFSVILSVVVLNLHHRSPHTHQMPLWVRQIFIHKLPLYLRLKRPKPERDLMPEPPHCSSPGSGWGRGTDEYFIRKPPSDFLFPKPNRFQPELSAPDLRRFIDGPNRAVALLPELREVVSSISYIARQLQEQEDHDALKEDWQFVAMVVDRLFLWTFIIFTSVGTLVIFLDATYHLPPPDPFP
Sequence (Q07001 22-517): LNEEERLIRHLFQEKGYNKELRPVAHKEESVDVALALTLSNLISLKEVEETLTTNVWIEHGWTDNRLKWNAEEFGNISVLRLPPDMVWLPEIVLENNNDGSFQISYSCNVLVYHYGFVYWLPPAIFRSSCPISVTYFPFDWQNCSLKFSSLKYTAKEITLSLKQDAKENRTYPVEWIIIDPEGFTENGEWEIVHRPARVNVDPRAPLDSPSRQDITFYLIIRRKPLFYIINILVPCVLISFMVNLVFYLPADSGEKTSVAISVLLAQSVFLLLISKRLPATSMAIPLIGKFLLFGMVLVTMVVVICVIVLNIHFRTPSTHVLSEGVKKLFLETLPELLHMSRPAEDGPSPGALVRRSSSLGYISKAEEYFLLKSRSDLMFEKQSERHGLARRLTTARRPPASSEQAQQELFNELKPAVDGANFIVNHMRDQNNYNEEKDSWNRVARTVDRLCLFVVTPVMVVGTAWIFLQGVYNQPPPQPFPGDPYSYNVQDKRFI
METHOD SUMMARY: Nicotinic acetylcholine receptor antagonism assay, IONFlux automated patch clamp (Example 203)
Assay type: cell-based
EXPERIMENTAL PARAMETERS: maximum percentage antagonism at maximum concentration tested 100 μM; read-out: Maximum Response (%)
A collection of compounds and their measured Emax at 100 µM

COMPOUND: CC(C)N(C)[C@@H]1CC[C@H](N2CC[C@H](Nc3ncnc4ccc(C(F)(F)F)cc34)C2=O)[C@H](NC(=O)[C@H]2CC[C@@H](NC(=O)CCOCCNC(=O)CCNC(=O)CCNC(=O)[C@H]3CC(=O)N(C)[C@@H]3c3cccnc3)CC2)C1 [Example 182]
TARGET OR SYSTEM: human alpha1 nicotinic acetylcholine (nACh) receptor (Homo sapiens, UniProt P02708+Q07001)
Emax at 100 µM (%): 61.9

COMPOUND: CC(C)N(C)[C@@H]1CC[C@H](N2CC[C@H](Nc3ncnc4ccc(C(F)(F)F)cc34)C2=O)[C@H](NC(=O)[C@H]2CC[C@H](NC(=O)CCCO[C@H]3CC[C@H](OCCNC(=O)[C@H]4CC(=O)N(C)[C@@H]4c4cccnc4)CC3)CC2)C1 [Example 1]
TARGET OR SYSTEM: human alpha1 nicotinic acetylcholine (nACh) receptor (Homo sapiens, UniProt P02708+Q07001)
Emax at 100 µM (%): 25.6

COMPOUND: CC(C)N(C)[C@@H]1CC[C@H](N2CC[C@H](Nc3ncnc4ccc(C(F)(F)F)cc34)C2=O)[C@H](NC(=O)[C@H]2CC[C@@H](NC(=O)CCOCCCNC(=O)CCCNC(=O)[C@H]3CC(=O)N(C)[C@@H]3c3cccnc3)CC2)C1 [Example 17]
TARGET OR SYSTEM: human alpha1 nicotinic acetylcholine (nACh) receptor (Homo sapiens, UniProt P02708+Q07001)
Emax at 100 µM (%): 55.1

COMPOUND: CC(C)N(C)[C@@H]1CC[C@H](N2CC[C@H](Nc3ncnc4ccc(C(F)(F)F)cc34)C2=O)[C@H](NC(=O)[C@H]2CC[C@H](C(=O)NCCCOCCCCOCCCNC(=O)[C@H]3CC(=O)N(C)[C@@H]3c3cccnc3)CC2)C1 [Example 194]
TARGET OR SYSTEM: human alpha1 nicotinic acetylcholine (nACh) receptor (Homo sapiens, UniProt P02708+Q07001)
Emax at 100 µM (%): 44.9

====

A collection of compounds and their measured pKd of Antibody for ARM Compound of Formula (I)
TARGET OR SYSTEM: Anti-cotinine antibody (SEQ ID NO: 11 / SEQ ID NO: 12, rabbit variable region with human IgG1 Fc domain)
METHOD SUMMARY: Binding of anti-cotinine antibody to ARM compounds by SPR, Biacore T200, 37° C. (Example 202)
EXPERIMENTAL PARAMETERS: pH 7.4, rabbit variable region/human IgG1 Fc antibody captured on protein A
OUTCOME MEASURE: pKd of Antibody for ARM Compound of Formula (I)

COMPOUND: CC(C)N(C)[C@@H]1CC[C@H](N2CC[C@H](Nc3ncnc4ccc(C(F)(F)F)cc34)C2=O)[C@H](NC(=O)[C@H]2C[C@@H](NC(=O)CCO[C@H]3CC[C@H](OCCNC(=O)[C@H]4CC(=O)N(C)[C@@H]4c4cccnc4)CC3)C2)C1 [Example 115]
REPORTED MEASUREMENT: 9.363

COMPOUND: CC(C)N(C)[C@@H]1CC[C@H](N2CC[C@H](Nc3ncnc4ccc(C(F)(F)F)cc34)C2=O)[C@H](NC(=O)COCCNC(=O)CCOCCNC(=O)CCOCCNC(=O)[C@H]2CC(=O)N(C)[C@@H]2c2cccnc2)C1 [Example 47]
REPORTED MEASUREMENT: 9.051

====

TARGET OR SYSTEM: CHOK1 cells engineered to overexpress human CCR2 (Homo sapiens, UniProt P41597)
Construct: expressed in transfected cells; host or cells: CHOK1 cells
METHOD SUMMARY: Antibody dependent cellular cytotoxicity (ADCC) reporter assay (Example 199)
Assay type: cell-based
EXPERIMENTAL PARAMETERS: with anti-cotinine antibody SEQ ID NO: 11/12; CHOK1-human CCR2 target cells, Jurkat FcγRIIIa NFAT-luciferase reporter cells; 12-18 hours; read-out: ADCC Reporter Assay pEC50 (converted)

COMPOUND: CCN1C(=O)C[C@H](C(=O)NCCOCCOCCOCCC(=O)N[C@H]2CC[C@@H](C(=O)N[C@@H]3C[C@H](NC(C)(C)C)CC[C@@H]3N3CC[C@H](Nc4ncnc5ccc(C(F)(F)F)cc45)C3=O)CC2)[C@H]1c1cccnc1 [Example 35]
TARGET OR SYSTEM: CHOK1 cells engineered to overexpress human CCR2 (Homo sapiens, UniProt P41597)
READOUT UNITS: nM
EC50: 2.51
--
COMPOUND: CC(C)N(C)[C@@H]1CC[C@H](N2CC[C@H](Nc3ncnc4ccc(C(F)(F)F)cc34)C2=O)[C@H](NC(=O)[C@H]2CC[C@H](N3CCN(C(=O)CCCCCCCCNC(=O)[C@H]4CC(=O)N(C)[C@@H]4c4cccnc4)CC3)CC2)C1 [Example 155]
TARGET OR SYSTEM: CHOK1 cells engineered to overexpress human CCR2 (Homo sapiens, UniProt P41597)
READOUT UNITS: nM
EC50: 1.58
--
COMPOUND: CC(C)N(C)[C@@H]1CC[C@H](N2CC[C@H](Nc3ncnc4ccc(C(F)(F)F)cc34)C2=O)[C@H](NC(=O)[C@H]2C[C@H](NC(=O)CCOC[C@H]3CC[C@H](COCCNC(=O)[C@H]4CC(=O)N(C)[C@@H]4c4cccnc4)CC3)C2)C1 [Example 54]
TARGET OR SYSTEM: CHOK1 cells engineered to overexpress human CCR2 (Homo sapiens, UniProt P41597)
READOUT UNITS: nM
EC50: 1
--
COMPOUND: CC(C)N(C)[C@@H]1CC[C@H](N2CC[C@H](Nc3ncnc4ccc(C(F)(F)F)cc34)C2=O)[C@H](NC(=O)CCOCCNC(=O)CCOCCNC(=O)COCCNC(=O)[C@H]2CC(=O)N(C)[C@@H]2c2cccnc2)C1 [Example 105]
TARGET OR SYSTEM: CHOK1 cells engineered to overexpress human CCR2 (Homo sapiens, UniProt P41597)
READOUT UNITS: nM
EC50: 0.794

====

TARGET OR SYSTEM: human alpha1 nicotinic acetylcholine (nACh) receptor (Homo sapiens, UniProt P02708+Q07001)
METHOD SUMMARY: Nicotinic acetylcholine receptor antagonism assay, IONFlux automated patch clamp (Example 203)
Format: cell-based
EXPERIMENTAL PARAMETERS: maximum percentage antagonism at maximum concentration tested 100 μM; read-out: Maximum Response (%)
OUTCOME MEASURE: Emax at 100 µM (%)

INPUT SMILES: CC(C)N(C)[C@@H]1CC[C@H](N2CC[C@H](Nc3ncnc4ccc(C(F)(F)F)cc34)C2=O)[C@H](NC(=O)COCCNC(=O)COCCNC(=O)COCCNC(=O)[C@H]2CC(=O)N(C)[C@@H]2c2cccnc2)C1
OUTCOME MEASURE: Emax at 100 µM
REPORTED MEASUREMENT: 67.6

INPUT SMILES: CCN1C(=O)C[C@H](C(=O)NCCOCCOCCOCCC(=O)N[C@H]2CC[C@@H](C(=O)N[C@@H]3C[C@H](NC(C)(C)C)CC[C@@H]3N3CC[C@H](Nc4ncnc5ccc(C(F)(F)F)cc45)C3=O)CC2)[C@H]1c1cccnc1
OUTCOME MEASURE: Emax at 100 µM
REPORTED MEASUREMENT: 52.3

INPUT SMILES: CC(C)N(C)[C@@H]1CC[C@H](N2CC[C@H](Nc3ncnc4ccc(C(F)(F)F)cc34)C2=O)[C@H](NC(=O)CCOCCNC(=O)CCOCCNC(=O)COCCNC(=O)[C@H]2CC(=O)N(C)[C@@H]2c2cccnc2)C1
OUTCOME MEASURE: Emax at 100 µM
REPORTED MEASUREMENT: 75.7

INPUT SMILES: CC(C)N(C)[C@@H]1CC[C@H](N2CC[C@H](Nc3ncnc4ccc(C(F)(F)F)cc34)C2=O)[C@H](NC(=O)[C@H]2CC[C@@H](NC(=O)CCOCCOCCOCCNC(=O)[C@H]3CC(=O)N(C)[C@@H]3c3cccnc3)CC2)C1
OUTCOME MEASURE: Emax at 100 µM
REPORTED MEASUREMENT: 69.9

INPUT SMILES: CC(C)N(C)[C@@H]1CC[C@H](N2CC[C@H](Nc3ncnc4ccc(C(F)(F)F)cc34)C2=O)[C@H](NC(=O)[C@H]2C[C@@H](NC(=O)CCCO[C@H]3CC[C@H](OCCNC(=O)[C@H]4CC(=O)N(C)[C@@H]4c4cccnc4)CC3)C2)C1
OUTCOME MEASURE: Emax at 100 µM
REPORTED MEASUREMENT: 53.9

INPUT SMILES: CC(C)N(C)[C@@H]1CC[C@H](N2CC[C@H](Nc3ncnc4ccc(C(F)(F)F)cc34)C2=O)[C@H](NC(=O)[C@H]2C[C@H](NC(=O)CCCO[C@H]3CC[C@H](OCCNC(=O)[C@H]4CC(=O)N(C)[C@@H]4c4cccnc4)CC3)C2)C1
OUTCOME MEASURE: Emax at 100 µM
REPORTED MEASUREMENT: 73.1

INPUT SMILES: CC(C)N(C)[C@@H]1CC[C@H](N2CC[C@H](Nc3ncnc4ccc(C(F)(F)F)cc34)C2=O)[C@H](NC(=O)[C@H]2CC[C@@H](NC(=O)COCCNC(=O)COCCNC(=O)[C@H]3CC(=O)N(C)[C@@H]3c3cccnc3)CC2)C1
OUTCOME MEASURE: Emax at 100 µM
REPORTED MEASUREMENT: 71.1

INPUT SMILES: CC(C)N(C)[C@@H]1CC[C@H](N2CC[C@H](Nc3ncnc4ccc(C(F)(F)F)cc34)C2=O)[C@H](NC(=O)[C@H]2CC[C@@H](NC(=O)CCCO[C@H]3CC[C@H](OCCNC(=O)[C@H]4CC(=O)N(C)[C@@H]4c4cccnc4)CC3)CC2)C1
OUTCOME MEASURE: Emax at 100 µM
REPORTED MEASUREMENT: 40.5
